Origin of values: paper PMC8861431

- System: spheroid co-cultures of POR-R activator and PORko-G target cells
- Procedure Details: Spheroid growth delay assay
- Format: cell-based
- Protocol Conditions: Homo sapiens, 4 h, 0% activator cells; 4 h exposure, anoxic; read-out: IC50 for inhibition of spheroid growth
Experimental Endpoint: IC50

*Q* Tell me IC50 reported for CCN1CCN(C(=O)c2cc(N(CCBr)CCOS(C)(=O)=O)c(S(C)(=O)=O)cc2[N+](=O)[O-])CC1
*A* > 40 µM

====

We begin with a simple list: items and their reported pIC50.
- Tested on: HCT-116 cell line panel
- Procedure Details: Anti-proliferative IC50 assay of authentic CP-506 metabolites
- Type: cell-based, human
- Protocol Conditions: Homo sapiens, HCT-116, 120 h, read-out: Anti-proliferative IC50 of metabolite
pIC50: −log10 of the molar value.

# Compound, Measured Result
rows = [
    ("CCN1CCN(C(=O)c2cc(N(CCBr)CCOS(C)(=O)=O)c(S(C)(=O)=O)cc2N)CC1 [CP-506M]", "> 5.00"),
    ("CCN1CCN(C(=O)c2cc(N(CCCl)CCCl)c(S(C)(=O)=O)cc2N)CC1 [CP-506M-Cl2]", "> 5.00"),
]

Okay, now this compound:
*Q* Tell me measured pIC50 for CCN1CCN(C(=O)c2cc(N(CCBr)CCOS(C)(=O)=O)c(S(C)(=O)=O)cc2NO)CC1 [CP-506H] please.
*A* > 5.00

====

- Test system: spheroid co-cultures of POR-R activator and PORko-G target cells
- Procedure Details: Spheroid growth delay assay
- Type: cell-based
- Protocol Conditions: Homo sapiens, 4 h, 50% activator cells; 4 h exposure, anoxic; read-out: IC50 for inhibition of spheroid growth
Experimental Endpoint: IC50 (µM)
Number only, in µM; omit the unit.

*Q* Recall and state the measured IC50 for CCN1CCN(C(=O)c2cc(N(CCBr)CCOS(C)(=O)=O)c(S(C)(=O)=O)cc2[N+](=O)[O-])CC1 .
*A* 5.6

====

- System: POR-R cell line (POR-overexpressing HCT-116)
- Procedure Details: Monolayer clonogenic assay (with monolayer ABM fit)
- Format: cell-based, human
- Protocol Conditions: Homo sapiens, HCT-116; POR-R monolayer; 4 h exposure, <1 ppm O2; read-out: Clonogenic IC50 under anoxia
- Description: Cells (4.8 x 10^5 cells) were seeded with 2 ml culture medium into 6-well plates and left to attach for 2 h in a humidified 37°C incubator. Compounds were then prepared in culture medium and added in a 500 µl volume to each well. […] The number of colonies with at least 50 cells was manually counted to determine the plating efficiency. The surviving fraction was determined as the ratio of plating efficiency of treated cells to that of the controls. […]
Experimental Endpoint: pIC50
# pIC50 = -log10(concentration in molar units)

*Q* Please report pIC50 with POR-R cell line (POR-overexpressing HCT-116) for item CCN1CCN(C(=O)c2cc(N(CCBr)CCOS(C)(=O)=O)c(S(C)(=O)=O)cc2[N+](=O)[O-])CC1 .
*A* 6.10
